Reported pKi values follow for various binders
- target: T1, wild-type human integrin α5β1 (octyl β-D-glucopyranoside preparation) (human, UniProt P08648 42-1049; P05556 21-798)
- T1 construct: From Immunological Sciences; also called a5p1; asp1
- T1 sequence (P08648 42-1049, chain 1 of 2): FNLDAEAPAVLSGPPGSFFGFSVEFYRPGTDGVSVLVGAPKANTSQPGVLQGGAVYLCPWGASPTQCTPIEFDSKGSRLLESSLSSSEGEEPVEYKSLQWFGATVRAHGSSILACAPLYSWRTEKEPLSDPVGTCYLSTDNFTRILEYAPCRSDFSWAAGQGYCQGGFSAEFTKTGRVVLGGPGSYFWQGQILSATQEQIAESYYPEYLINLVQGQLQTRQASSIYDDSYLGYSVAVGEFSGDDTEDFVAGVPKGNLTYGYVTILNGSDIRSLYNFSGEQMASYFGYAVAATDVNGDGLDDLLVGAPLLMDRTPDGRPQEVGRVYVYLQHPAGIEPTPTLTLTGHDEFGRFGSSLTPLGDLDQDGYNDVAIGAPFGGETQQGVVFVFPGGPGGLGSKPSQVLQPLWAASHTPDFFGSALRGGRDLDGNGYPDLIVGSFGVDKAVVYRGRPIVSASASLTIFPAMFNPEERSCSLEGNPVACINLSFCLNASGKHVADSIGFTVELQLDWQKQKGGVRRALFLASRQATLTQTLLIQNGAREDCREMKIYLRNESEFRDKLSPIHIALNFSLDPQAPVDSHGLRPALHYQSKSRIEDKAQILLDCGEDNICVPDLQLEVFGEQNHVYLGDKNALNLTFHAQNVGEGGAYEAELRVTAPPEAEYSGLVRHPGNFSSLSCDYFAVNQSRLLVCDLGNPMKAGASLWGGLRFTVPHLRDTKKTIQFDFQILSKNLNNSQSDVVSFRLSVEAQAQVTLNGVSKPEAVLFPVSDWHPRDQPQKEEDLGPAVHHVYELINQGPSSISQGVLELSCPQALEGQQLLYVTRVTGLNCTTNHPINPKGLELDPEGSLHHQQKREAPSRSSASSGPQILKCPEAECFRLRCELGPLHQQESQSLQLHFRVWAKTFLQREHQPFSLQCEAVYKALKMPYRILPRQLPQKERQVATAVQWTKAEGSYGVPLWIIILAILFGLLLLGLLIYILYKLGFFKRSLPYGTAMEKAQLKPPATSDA
- T1 sequence (P05556 21-798, chain 2 of 2): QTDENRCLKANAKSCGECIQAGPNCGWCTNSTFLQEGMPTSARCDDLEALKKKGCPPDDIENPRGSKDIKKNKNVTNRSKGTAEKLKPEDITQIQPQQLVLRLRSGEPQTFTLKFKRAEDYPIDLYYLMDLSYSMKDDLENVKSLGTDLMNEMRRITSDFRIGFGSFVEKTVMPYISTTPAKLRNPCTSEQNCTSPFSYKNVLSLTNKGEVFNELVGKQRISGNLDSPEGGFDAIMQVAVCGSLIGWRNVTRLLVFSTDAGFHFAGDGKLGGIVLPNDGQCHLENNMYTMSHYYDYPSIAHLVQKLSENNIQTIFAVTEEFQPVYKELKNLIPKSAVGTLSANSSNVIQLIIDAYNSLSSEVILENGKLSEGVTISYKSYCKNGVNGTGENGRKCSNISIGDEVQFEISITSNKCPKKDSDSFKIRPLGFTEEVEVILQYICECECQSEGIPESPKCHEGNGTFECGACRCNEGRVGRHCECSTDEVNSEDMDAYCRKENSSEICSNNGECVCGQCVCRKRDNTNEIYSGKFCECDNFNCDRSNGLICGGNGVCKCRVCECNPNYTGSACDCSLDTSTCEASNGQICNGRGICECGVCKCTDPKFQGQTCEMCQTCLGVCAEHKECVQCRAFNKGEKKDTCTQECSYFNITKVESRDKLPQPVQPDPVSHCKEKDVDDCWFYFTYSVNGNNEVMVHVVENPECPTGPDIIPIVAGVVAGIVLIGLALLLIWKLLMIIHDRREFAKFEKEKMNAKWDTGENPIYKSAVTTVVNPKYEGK
- method: competitive binding assay on α5β1-coated plates, isoDGR/STV-HRP probe
Where no end group is shown, it is not given here.
Formally, pKi is defined as -log10 of the concentration c, with c in mol/L.

binder	val
FETLRGDERILSILRHQNLLKELQD (Synthetic peptide bought from Biomatik; no terminal modification is stated for it; also called compound 1) [peptide 1 (CgA-derived peptide, residues 39-63), synthetic]	5.04

Okay, next one:
Given item FETLRGDERILSILR-NH2 (Made by Fmoc-SPPS on a Rink-amide resin; also called compound 3) [peptide 3] , the value recorded as its pKi is 5.00
